target: Ste12 (UniProt P13574); assay: PBM E-score (8-mer binding enrichment) (E-score (-0.5 to 0.5)); higher = stronger / more preferred TF binding; details: protein concentration: 200 nM; construct: GST-DNA-binding domain
Sequence (P13574 whole entry, the tested form may be a part): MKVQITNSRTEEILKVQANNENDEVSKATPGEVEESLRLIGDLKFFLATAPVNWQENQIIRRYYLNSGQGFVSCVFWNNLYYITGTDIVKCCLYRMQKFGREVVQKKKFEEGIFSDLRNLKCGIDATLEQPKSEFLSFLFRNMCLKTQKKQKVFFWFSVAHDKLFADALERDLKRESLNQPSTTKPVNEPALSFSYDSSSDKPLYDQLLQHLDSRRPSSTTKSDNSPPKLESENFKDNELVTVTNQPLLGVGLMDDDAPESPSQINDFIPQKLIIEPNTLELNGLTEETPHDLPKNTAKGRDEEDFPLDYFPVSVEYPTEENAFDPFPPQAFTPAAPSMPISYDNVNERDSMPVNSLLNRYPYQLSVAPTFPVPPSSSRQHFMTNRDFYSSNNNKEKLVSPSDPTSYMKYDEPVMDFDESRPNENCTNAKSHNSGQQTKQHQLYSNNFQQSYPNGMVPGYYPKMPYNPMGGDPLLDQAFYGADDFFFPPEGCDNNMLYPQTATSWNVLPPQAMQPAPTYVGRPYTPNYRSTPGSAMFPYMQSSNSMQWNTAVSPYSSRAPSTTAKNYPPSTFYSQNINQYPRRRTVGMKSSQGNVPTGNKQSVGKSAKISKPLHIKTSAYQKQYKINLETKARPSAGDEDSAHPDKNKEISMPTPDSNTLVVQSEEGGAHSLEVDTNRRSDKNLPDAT
The full ranking holds about 33,000 sequences; the median of “E-score (-0.5 to 0.5)” is about -0.01, and the highest 2% start at about 0.26. The full list was thinned out, with the highest values kept by preference.

# QUERY_SEQUENCE, PBM E-score
rows = [
    ("AGGATGAA", 0.128),
    ("CACCTAAC", 0.0515),
    ("CGGATGAA", 0.268),
    ("AATAGTTG", 0.255),
    ("TACAACTA", 0.268),
]
